Test system: Schistosoma mansoni schistosomula (Liberian)
METHOD_DESCRIPTION: drug effect (1 - score/DMSO control score) (fraction); higher = more antischistosomal effect, active = 0.5 or more; extreme values may be limits of the assay
ASSAY_CONDITIONS: 48 h; 10 µM
Answer with one of the outcomes 1 (active), 0 (inactive)

> print(dat)
                                   compound                               test.target  class.name
1            O=C(Nc1nnc(S)s1)c1cc(Br)ccc1Cl  Schistosoma mansoni schistosomula (Liberian)           0
2  N#CCN(CCCCN1CCN(c2ccc(F)cc2)CC1)C(=O)OCc1ccccc1  Schistosoma mansoni schistosomula (Liberian)           0

Can you look up the reported call for CC(C)(CN)c1nc(-c2ccc(Cl)c(O)c2)c(-c2ccnc(N)n2)[nH]1 for me?
0

----------
Tested on: Schistosoma mansoni schistosomula (NMRI)
METHOD_DESCRIPTION: phenotypic severity score (0-4); higher = more antischistosomal effect, active = 2 or more
ASSAY_CONDITIONS: 48 h; 10 µM
Provide the recorded phenotypic severity score for the entries that follow.
Give bare numbers.

MOLECULE	phenotypic severity score
CCC(C)NC(=O)c1ccc(NC(=O)C2(c3ccccc3)CCCC2)cc1 (stereo unspecified)	0
CCC(Sc1nc2ccccc2o1)C(=O)Nc1nccs1 (stereo unspecified)	4
COc1ccc(OC)c(NCc2ccc3nc(N)nc(N)c3c2Cl)c1	2
CC(=O)NC[C@H]1CN(c2ccc(N3CCSCC3)c(F)c2)C(=O)O1	0
CNc1cc(C)nc(C2CN(C(=O)c3n[nH]c4ccccc34)CCO2)c1 (stereo unspecified)	0

Could I get phenotypic severity score for every one of these entries?
1. CCOC(=O)c1c(NC(=O)c2c(F)c(F)c(F)c(F)c2F)sc(C(N)=O)c1C
2. Nc1cccnc1Nc1ccc(Cl)cc1
3. CN1CCN(c2nccc3nc(-c4ccc(F)c(F)c4)[nH]c23)CC1
4. COc1ccc(Nc2ccccc2NC(=O)c2ccc(O)nc2)cc1

4
0
0
0

Could I get phenotypic severity score for every one of these entries?
1. COC(=O)c1ccc(F)cc1NS(=O)(=O)c1cccc(-c2cnn(Cc3ccccc3)c2)c1
2. O=C(NCc1nnc2n1CCCCC2)c1ccc(-c2ccc(F)cc2)o1
3. CN1CCN(c2nccc3[nH]c(-c4cccc(F)c4)cc23)CC1
4. COC(=O)c1c(NC(=O)c2cc3ccccc3oc2=O)sc2c1CCN(Cc1ccccc1)C2
5. O=C(C1CCN(c2cc(-n3cccc3)ncn2)CC1)N1CCc2ccccc2C1
6. CC(C)(C)C1CCC(CC2=C(O)C(=O)c3ccccc3C2=O)CC1 (stereo unspecified)
7. Nc1ncc(-c2ccc(C(F)(F)F)nc2)cc1-c1ccc(C(F)(F)F)nc1
8. CCc1ccc(S(=O)(=O)Nc2cc(CN3CCN(CCC(C)C)CC3)ccc2C)cc1

[1, 0, 2, 3, 0, 2, 0, 2]

Could I get phenotypic severity score for every one of these entries?
1. CNC(=O)C1Cc2c([nH]c3cc(Cl)ccc23)C2(CCN(CCc3ccccc3)CC2)N1 (stereo unspecified)
2. c1ccc(Oc2ccc(-c3cc(N4CCOCC4)[nH]n3)cc2)cc1

1: 0; 2: 0

Could I get phenotypic severity score for every one of these entries?
1. Cc1[nH]c2cc(F)cc(F)c2c(=O)c1-c1ccc(Oc2ccc(OC(F)(F)F)cc2)cc1
2. CCn1cnc2c(Nc3cc(F)cc(F)c3)nc(C#N)nc21
3. CN(C)CCNC(=O)N1CCCN(c2ncnc3cc(-c4ccccc4)sc23)CC1
4. CCCCCCCCCCCCCCCCOP(=O)([O-])OCC[N+](C)(C)C
5. Clc1cccc(CO[C@H]2CCc3ccccc3[C@@H]2n2ccnn2)c1
6. Cc1cc(NC(=O)c2ccc(S(=O)(=O)N(Cc3ccccc3)C(C)C)cc2)no1
7. Clc1ccc(CN2CCN(C3=NCCN3)CC2)cc1Cl

4
4
0
0
4
0
0

----------
Tested on: Schistosoma mansoni schistosomula (LE)
METHOD_DESCRIPTION: XTT viability relative to DMSO control; higher = more viable (less active)
ASSAY_CONDITIONS: 72 h; 10 µM
PARAMETER: XTT viability (%)
Give bare numbers, in %.

Please review the entries below; each comes with its answer.
> print(dat)
                                   molecule   val
1  CCc1cc(=O)n(C)c(SC(C)C(=O)Nc2ccc(F)cc2)n1 (stereo unspecified)   115
2       c1coc(CNc2nc(N3CCCCC3)nc3ccccc23)c1  99.5
3  CN1CCN(c2cc(-c3ccc(F)cc3)nc(-c3ccncc3)n2)CC1    63
4          COc1cc(C(F)(F)F)nc2ccc(C)c(N)c12  79.3
5    O=C(c1ccc(F)cc1)N(CCNc1ccccc1)c1ccccc1   126

Moving on to the next molecule.
I would be grateful if you could share the reported XTT viability for Clc1ccc(-n2cc(COc3ccnc4ccccc34)nn2)cc1 .
103

----------
Tested on: Schistosoma mansoni schistosomula (NMRI)
METHOD_DESCRIPTION: phenotypic severity score (0-4); higher = more antischistosomal effect, active = 2 or more
ASSAY_CONDITIONS: 48 h; 10 µM
Provide the recorded phenotypic severity score for the entries that follow.
Numbers only.

Please review the entries below; each comes with its answer.
> print(dat)
                                   compound  val
1  N#Cc1nc(-c2ccccc2)oc1S(=O)(=O)c1ccc(Cl)cc1    0
2   COc1ccc2nc(C)cc(OCC(=O)Nc3ccccc3OC)c2c1    0
3  CC(C)(C)c1cc(C(=O)Nc2cccnc2)cc(C(=O)Nc2cccnc2)c1    0
4  O=C(Nc1ccc(N2CCNCC2)cc1)c1ccn2ncc(-c3cccc(Cl)c3)c2n1    4

Could I get phenotypic severity score for every one of these entries?
1. COc1nc2ccc(Br)cc2cc1[C@@H](c1ccccc1)[C@@](O)(CCN(C)C)c1cccc2ccccc12
2. N#Cc1nc(-c2ccccc2F)oc1NCCc1ccccc1
3. N=C(N)c1ccc(OCCCCCOc2ccc(C(=N)N)cc2)cc1
4. CN(C)c1cc(NC(=O)Nc2ccccc2)c2ccccc2n1
5. CCN(CC)CCCN1CCN(C(=O)c2cccc(-c3noc(C(F)(F)F)n3)c2)CC1
6. CC(=O)Nc1ccc(-c2noc(CC3CCCN(Cc4cccc(F)c4C)C3)n2)cc1 (centres undefined)
7. Cc1nc(-c2ccccn2)nc(N(C)CCc2ccccc2)c1Cl
8. Nc1ncc(-c2cn[nH]c2)cc1-c1nc2cc(Cl)cnc2[nH]1

1. 4
2. 0
3. 0
4. 0
5. 0
6. 0
7. 4
8. 0

----------
Tested on: Schistosoma mansoni schistosomula (LE)
METHOD_DESCRIPTION: XTT viability relative to DMSO control; higher = more viable (less active)
ASSAY_CONDITIONS: 72 h; 10 µM
PARAMETER: XTT viability (%)
One number for each entry, in %.

> print(dat)
                                    compound  uom   val
 1           Nc1nccc2ccc(-c3ccc4nccn4c3)cc12    %  41.1
 2  O=C(Nc1ccnc(-c2cccnc2)n1)c1cc(C(F)(F)F)cc(C(F)(F)F)c1    %    91
 3  CC1=Nc2ccc(Cl)cc2C(c2ccccc2)N1CCNC(=O)CN(C)C (configuration not stated)    %   113
 4  O=C(N[C@H](Cc1ccccc1)C(=O)Nc1ccccc1N1CCOCC1)c1cccs1    %   129
 5         CNc1snc(C)c1C(=O)NCCOc1ccc(OC)cc1    %  91.3
 6            CCC(=O)Nc1ccccc1C(=O)Nc1ccccn1    %  87.3
 7  Nc1ncnc2c1c(Cc1cccc3ccccc13)nn2CC1CCNCC1    %  96.2
 8  CCOC(=O)c1cc(-c2csc(Nc3c(C)cc(C)cc3C)n2)on1    %  95.6
 9  CCC(Sc1nc2ccccc2o1)C(=O)Nc1nnc(C)s1 (configuration not stated)    %  82.8
10  O=C(NCc1nnc2n1CCCCC2)c1ccc(-c2ccc(F)cc2)o1    %  97.1

Could I get XTT viability for every one of these entries?
1. Cc1nc(-c2cccc(NCc3ccccc3)c2)[nH]c1C
2. CCN(CC)C(=O)N1CCN(C)CC1

1. 104
2. 95.5

----------
Tested on: Schistosoma mansoni schistosomula (Liberian)
METHOD_DESCRIPTION: drug effect (1 - score/DMSO control score) (fraction); higher = more antischistosomal effect, active = 0.5 or more; extreme values may be limits of the assay
ASSAY_CONDITIONS: 72 h; 10 µM
Answer with one of the outcomes active, inactive

Completed entries (count: 5):
COMPOUND	CLASS_NAME
N#CCN(CCCCN1CCN(c2ccc(F)cc2)CC1)C(=O)OCc1ccccc1	inactive
CN1CCN(c2nccc3nc(-c4ccc(F)c(F)c4)[nH]c23)CC1	inactive
c1ccc(C[C@@H]2CN(c3nccc(Oc4ccc(-n5ccnc5)cc4)n3)CCN2)cc1	inactive
c1ccc(-c2cc(N3CCCCC3)c3ccccc3n2)nc1	inactive
CC1COC2(CCN(c3nc(=O)c4cc(C(F)(F)F)cc([N+](=O)[O-])c4s3)CC2)O1 (stereo unspecified)	inactive

Can you look up the reported call for CC(C)(CN)c1nc(-c2ccc(Cl)c(O)c2)c(-c2ccnc(N)n2)[nH]1 for me?
inactive

Can you look up the reported call for CN1CCN(S(=O)(=O)c2ccc(-c3ccc4c(Nc5ccc6nn[nH]c6c5)ccnc4c3)cc2)CC1 for me?
inactive

Can you look up the reported call for CCOc1ccccc1NC(C)C(=O)Nc1cc(C(F)(F)F)ccc1N1CCOCC1 (stereo unspecified) for me?
inactive

Can you look up the reported call for C[C@H]1COc2c(N3CCN(C)CC3)c(F)cc3c(=O)c(C(=O)O)cn1c23 for me?
inactive

Can you look up the reported call for COc1cccn2c(C(=O)N3CCCCC3)c(C(F)(F)F)nc12 for me?
inactive
